# measured on: C-X-C chemokine receptor type 6 (Homo sapiens)
# Sequence (O00574 whole entry): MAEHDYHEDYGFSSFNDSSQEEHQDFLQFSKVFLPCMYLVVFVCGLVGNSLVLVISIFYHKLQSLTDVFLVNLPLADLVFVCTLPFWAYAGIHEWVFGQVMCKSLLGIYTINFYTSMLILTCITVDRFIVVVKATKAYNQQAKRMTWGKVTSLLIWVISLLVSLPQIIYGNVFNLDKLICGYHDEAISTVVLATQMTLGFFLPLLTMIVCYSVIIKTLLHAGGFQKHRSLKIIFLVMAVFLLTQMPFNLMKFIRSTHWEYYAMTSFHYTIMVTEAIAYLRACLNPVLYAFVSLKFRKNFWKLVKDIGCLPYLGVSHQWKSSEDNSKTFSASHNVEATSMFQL
# measurement notes: Antagonist activity at Prolink-tagged human CXCR6 receptor assessed as inhibition of forskolin-induced cAMP accumulation by DiscoveRx cell based assay
# Format: functional
assay endpoint: IC50

mol smiles | IC50
COc1cc(C(=O)N[C@@H]2C[C@H]3CCC[C@@H](C2)N3CC(=O)Nc2ccc(C)cc2)cc(OC)c1OC | > 40 µM
O=C(CN1[C@@H]2CCC[C@H]1C[C@H](NC(=O)c1ccccc1)C2)Nc1ccccc1 | > 80 µM
COc1cc(C(=O)N[C@@H]2C[C@H]3CCC[C@@H](C2)N3Cc2nc3ccccc3[nH]2)cc(OC)c1OC | > 40 µM
COc1cc(C(=O)NC2CCN(CC(=O)Nc3ccccc3)CC2)cc(OC)c1OC | > 40 µM

Here is the next item to consider.
Query IC50 on C-X-C chemokine receptor type 6 (Homo sapiens) for COc1cc(C(=O)N[C@@H]2C[C@H]3CCC[C@@H](C2)N3CC(=O)Nc2c(C)cccc2C)cc(OC)c1OC > 40 µM

From: ChEMBL document CHEMBL4610036
